This section lists IC50 readings for Estrogen receptor beta (Homo sapiens, UniProt Q92731).
Give bare numbers, in µM.

INSERT INTO results (molecular_string, subject_of_test, measurement_label, recorded_value) VALUES
  ('Oc1ccc(-c2nc3cc(O)cc(Br)c3o2)c(C(F)(F)F)c1', 'Estrogen receptor beta (Homo sapiens, UniProt Q92731)', 'IC50', 0.0014);

Now consider the entry below.
Inquiry: Provide IC50 value for the following molecule: C/C=C/c1cc(O)cc2nc(-c3ccc(O)cc3)oc12
Reply text: 0.142
